Test system: Ba/F3 KIF5B-RET cells
Experiment: Cytotoxicity assay, Ba/F3 KIF5B-RET (CellTiter-Glo)
Format: cell-based
Run conditions: Mus musculus, BaF3; 72 hrs, CTG
Listed compounds paired with reported pIC50
// scale note: pIC50 = -log10(conc_M); give the bare number

# annotated cases, reported pIC50 shown
>>> observed_value("Cn1cc(-c2cnn3c(-c4ccc(NC(=O)Nc5cc(C(F)(F)F)ccc5F)cc4)cnc3c2)cn1 [Compound T-1]")
6.27
>>> observed_value("Cn1cc(-c2cnc3c(-c4ccc(CC(=O)Nc5cc(C(C)(C)C(F)(F)F)on5)cc4)cnn3c2)cn1 [Compound T-10]")
8.00
>>> observed_value("Cn1cc(-c2cc3ncc(-c4ccc(CC(=O)Nc5cc(C(C)(C)C(F)(F)F)on5)cc4)n3cn2)cn1 [Compound T-4]")
8.14
>>> observed_value("Cn1cc(-c2cnn3c(-c4ccc(CC(=O)Nc5cc(C(C)(C)C(F)(F)F)on5)cc4)cnc3c2)cn1 [Compound T-2]")
8.31
>>> observed_value("Cn1cc(Nc2nccn3c(-c4ccc(CC(=O)Nc5cc(C(C)(C)C(F)(F)F)on5)cc4)cnc23)cn1 [Compound T-5]")
8.61

Need pIC50, item Cn1cc(-c2cc3ncc(-c4ccc(CC(=O)Nc5cc(C(C)(C)C(F)(F)F)on5)c(F)c4)n3cn2)cn1 [Compound T-8]
7.81

Form field: reported pIC50 of Cn1cc(Nc2ccnn3c(-c4ccc(CC(=O)Nc5cc(C(C)(C)C(F)(F)F)on5)cc4)cnc23)cn1 [Compound T-6]
8.21

If you can, please state the reported pIC50 value of Cn1cc(-c2cnn3c(-c4ccc(CC(=O)Nc5cc(C(C)(C)C(F)(F)F)on5)cn4)cnc3c2)cn1 [Compound T-9] .
7.22

----------
Parameter: IC50. Scope: all listed entries.
Target entity: Ret wt (Homo sapiens (Human))
Sequence (P07949 29-1114): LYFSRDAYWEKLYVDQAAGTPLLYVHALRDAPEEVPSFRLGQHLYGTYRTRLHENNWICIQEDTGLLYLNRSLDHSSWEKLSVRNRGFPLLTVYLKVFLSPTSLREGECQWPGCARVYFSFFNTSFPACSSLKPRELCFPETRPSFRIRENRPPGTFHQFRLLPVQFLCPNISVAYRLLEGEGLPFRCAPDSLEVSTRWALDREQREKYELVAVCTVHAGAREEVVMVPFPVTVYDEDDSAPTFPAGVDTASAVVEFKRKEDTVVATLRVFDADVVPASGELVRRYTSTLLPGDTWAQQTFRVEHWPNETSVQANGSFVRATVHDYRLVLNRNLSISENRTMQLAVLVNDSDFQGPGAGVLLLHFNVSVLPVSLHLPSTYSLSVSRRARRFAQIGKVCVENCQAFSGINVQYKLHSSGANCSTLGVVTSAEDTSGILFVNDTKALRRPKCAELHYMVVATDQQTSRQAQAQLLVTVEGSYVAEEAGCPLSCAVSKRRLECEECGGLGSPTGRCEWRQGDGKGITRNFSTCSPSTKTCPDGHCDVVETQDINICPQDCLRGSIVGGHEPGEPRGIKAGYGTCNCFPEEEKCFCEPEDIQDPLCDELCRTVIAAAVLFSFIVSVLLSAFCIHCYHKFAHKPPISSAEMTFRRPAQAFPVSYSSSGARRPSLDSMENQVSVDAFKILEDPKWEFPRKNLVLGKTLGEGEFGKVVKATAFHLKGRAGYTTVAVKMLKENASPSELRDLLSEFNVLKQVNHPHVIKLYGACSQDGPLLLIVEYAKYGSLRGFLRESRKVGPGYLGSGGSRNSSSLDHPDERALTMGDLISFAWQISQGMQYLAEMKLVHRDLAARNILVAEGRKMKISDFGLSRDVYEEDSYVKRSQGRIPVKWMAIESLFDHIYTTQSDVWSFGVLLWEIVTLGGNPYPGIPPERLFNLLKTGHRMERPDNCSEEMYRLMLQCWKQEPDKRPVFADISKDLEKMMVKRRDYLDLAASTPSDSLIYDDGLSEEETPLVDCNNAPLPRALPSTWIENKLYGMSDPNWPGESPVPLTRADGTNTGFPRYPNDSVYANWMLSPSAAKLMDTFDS
Experiment: Inhibition of kinase, Ret wt (HTRF KinEASE-TK)
Assay type: biochemical
Run conditions: HTRF KinEASE-TK, reaction 20 minutes at room temperature; read-out: Ret wt IC50
Write it as a number; the unit nM goes unstated.

>>> observed_value("Cn1cc(-c2cc3ncc(-c4ccc(CC(=O)Nc5cc(C(C)(C)C(F)(F)F)on5)cn4)n3cn2)cn1")
0.13

May I ask what IC50 has been recorded for `Cn1cc(-c2cc3ncc(-c4ccc(CC(=O)Nc5cc(C(C)(C)C(F)(F)F)on5)cc4)n3cn2)cn1` ?
0.16

----------
Test system: Ba/F3 KIF5B-RET cells
Experiment: Cytotoxicity assay, Ba/F3 KIF5B-RET (CellTiter-Glo)
Type: cell-based
Run conditions: Mus musculus, BaF3; 72 hrs, CTG
Reported property: pIC50
For clarity, pIC50 is expressed as the negative log10 of concentration in mol/L.

# count of solved cases: 3
>>> observed_value("Cn1cc(-c2cc3ncc(-c4ccc(CC(=O)Nc5cc(C(C)(C)C(F)(F)F)on5)cn4)n3cn2)cn1 [Compound T-3]")
7.29
>>> observed_value("Cn1cc(-c2ccc3c(-c4ccc(CC(=O)Nc5cc(C(C)(C)C(F)(F)F)on5)cc4)cnn3c2)cn1 [Compound T-11]")
7.81
>>> observed_value("Cn1cc(-c2cnn3c(-c4ccc(CC(=O)Nc5cc(C(C)(C)C(F)(F)F)on5)c(F)c4)cnc3c2)cn1 [Compound T-7]")
8.64

Turning to the following compound.
Report pIC50 for Cn1cc(-c2cn3ncc(-c4ccc(CC(=O)Nc5cc(C(C)(C)C(F)(F)F)on5)cc4)c3cn2)cn1 [Compound T-12] please.
8.00
